Data provenance is patent US20250034165A1.

Biological target: EGFR (d746-750 (d19)/T790M) (Homo sapiens (Human), UniProt P00533, DEL746-750/T790M)
Sequence (P00533 other isoform, or with tags, fused parts or gaps T790M/del 1-668/del 746-750 limits assumed): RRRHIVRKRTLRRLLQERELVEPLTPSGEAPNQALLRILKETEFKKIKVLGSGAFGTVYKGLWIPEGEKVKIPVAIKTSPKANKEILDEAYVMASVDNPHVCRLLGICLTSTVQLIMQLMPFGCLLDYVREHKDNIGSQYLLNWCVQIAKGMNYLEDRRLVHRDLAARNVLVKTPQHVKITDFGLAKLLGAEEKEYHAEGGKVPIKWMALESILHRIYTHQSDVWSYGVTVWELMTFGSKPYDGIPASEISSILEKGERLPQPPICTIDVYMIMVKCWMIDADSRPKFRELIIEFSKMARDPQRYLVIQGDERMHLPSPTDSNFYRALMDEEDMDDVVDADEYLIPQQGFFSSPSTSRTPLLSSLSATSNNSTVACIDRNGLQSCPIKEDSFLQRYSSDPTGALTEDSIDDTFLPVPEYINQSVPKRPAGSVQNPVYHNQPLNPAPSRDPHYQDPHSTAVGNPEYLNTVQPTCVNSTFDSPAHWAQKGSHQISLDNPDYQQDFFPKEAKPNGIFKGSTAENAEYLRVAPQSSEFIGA
Experiment: Inhibitory activity for EGFR (d746-750 (d19)/T790M) kinase
Settings: ATP 5 μM
Experimental: 1.3 Screening for Inhibitory Activity for EGFR (d746-750 (d19)/T790M) Kinase A 50 ng/μL EGFR (d746-750/T790M, Carna) stock solution was diluted with a kinase buffer (50 mM HEPES, 10 mM MgCl2, 2 mM DTT, 1 mM EGTA, 0.01% Tween 20), and 6 μL of 1.67× working solution at 0.005 ng/μL (final concentration: 0.003 ng/μL) was added to each well. […]
quantity-measured: IC50 (nM)

Example results:
compound	units-of-measure	IC50
C[C@H](Nc1ccc2c(c1)N/C1=N\C(=O)c3cc(F)nc(c3)-c3cnn(C)c3OCCC[C@@H](C3CC3)CN12)C(F)(F)F [Example 9]	nM	0.28
Cc1cc2cc(n1)-c1cnn(C)c1OCCC[C@@H](C1CC1)CN1/C(=N/C2=O)Nc2ccc(N3CC[C@H](O)C3)cc21 [Example 21]	nM	0.032

(A) Cc1cc2cc(n1)-c1cnn(C)c1OCCC[C@@H](C1CC1)CN1/C(=N/C2=O)Nc2cc(N[C@@H]3CCCOC3)ccc21 [Example 18]
(B) Cc1cc2cc(n1)-c1cnn(C)c1OCCC[C@@H](C1CC1)CN1/C(=N/C2=O)Nc2ccc(NCCCN3CCOCC3)cc21 [Example 81]
// which entry reports the smaller IC50, A or B ? Could you answer with the label of the item you picked? B
(B: 0.011 nM, A: 0.02 nM)

(I) Cc1cc2cc(n1)-c1cnn(C)c1OCCC[C@@H](C1CC1)CN1/C(=N/C2=O)Nc2ccc(NCCN3CCCCC3)cc21 [Example 83]
(II) Cc1cc2cc(n1)-c1cnn(C)c1OCCC[C@@H](C1CC1)CN1/C(=N/C2=O)Nc2ccc(N[C@H]3CC[C@@H](N(C)C)CC3)cc21 [Example 99]
(III) Cc1cc2cc(n1)-c1cnn(C)c1OC[C@H](C1CC1)CCCn1c(nc3ccc(NC4COC4)cc31)NC2=O [Example 59]
(IV) Cc1cc2cc(n1)-c1cnn(C)c1OCCC[C@@H](C1CC1)CN1/C(=N/C2=O)Nc2cc(NC3(C)COC3)ccc21 [Example 29]
Hi! Can you put these in order of IC50, lowest number first? // list labels; follow requested order IV, I, III, II

(A) Cc1cc2cc(n1)-c1cnn(C)c1OCCC[C@@H](C1CC1)CN1/C(=N/C2=O)Nc2cc(NCC3CCOCC3)ccc21 [Example 22]
(B) Cc1cc2cc(n1)-c1cnn(C)c1OCCC[C@@H](C1CC1)CN1/C(=N/C2=O)Nc2cc(N[C@H]3CC[C@H](N(C)C)CC3)ccc21 [Example 25]
Response body: label of entry with the larger IC50; valid values A , B . Could you answer with the label of the item you picked? A

====

assay: In vivo pharmacokinetics in ICR mice; conditions: mouse, plasma, PO, 10 mg/kg intragastric, read-out: Cmax
quantity-measured: Cmax (ng/mL)

Cc1cc2cc(n1)-c1cnn(C)c1OCCC[C@@H](C1CC1)CN1/C(=N/C2=O)Nc2cc(NC3(C)COC3)ccc21 553
Cc1cc2cc(n1)-c1cnn(C)c1OCCC[C@@H](C1CC1)CN1/C(=N/C2=O)Nc2ccc(N[C@H]3C[C@H](N(C)C)C3)cc21 57.8
Cc1cc2cc(n1)-c1cnn(C)c1OCCC[C@@H](C1CC1)CN1/C(=N/C2=O)Nc2ccc(N(C)C3CCN(C)CC3)cc21 77.1
Cc1cc2cc(n1)-c1cnn(C)c1OCCC[C@@H](C1CC1)CN1/C(=N/C2=O)Nc2ccc(NCCN(C)C)cc21 74.5

(P) Cc1cc2cc(n1)-c1cnn(C)c1OCCC[C@@H](C1CC1)CN1/C(=N/C2=O)Nc2ccc(N[C@@H](C)CN(C)C)cc21
(Q) CCC1(Nc2ccc3c(c2)N/C2=N\C(=O)c4cc(C)nc(c4)-c4cnn(C)c4OCCC[C@@H](C4CC4)CN23)COC1
Response body: label of entry with the larger Cmax; valid values P , Q . Could you answer with the label of the item you picked? Q

====

test: In vivo pharmacokinetics in ICR mice; conditions: mouse, plasma, PO, 10 mg/kg intragastric
quantity-measured: AUC(0-inf) (ng·h/mL)

Cc1cc2cc(n1)-c1cnn(C)c1OCCC[C@@H](C1CC1)CN1/C(=N/C2=O)Nc2ccc(N(C)C3CCN(C)CC3)cc21 848

(P) Cc1cc2cc(n1)-c1cnn(C)c1OCCC[C@@H](C1CC1)CN1/C(=N/C2=O)Nc2cc(NCCCN3CCOCC3)ccc21
(Q) Cc1cc2cc(n1)-c1cnn(C)c1OCCC[C@@H](C1CC1)CN1/C(=N/C2=O)Nc2cc(N[C@@H](C)CN(C)C)ccc21
// which entry reports the smaller AUC(0-inf), P or Q ? Could you answer with the label of the item you picked? P
(P: 830 ng·h/mL, Q: 1960 ng·h/mL)

====

biological target: EGFR (d746-750 (d19)/T790M) (Homo sapiens (Human), UniProt P00533, DEL746-750/T790M); assay: Inhibitory activity for EGFR (d746-750 (d19)/T790M) kinase; settings: ATP 5 μM
pIC50: −log10 of the molar value.
quantity-measured: pIC50

molecule	assay-target	readout-value
Cc1cc2cc(n1)-c1cnn(C)c1OCCC[C@@H](C1CC1)CN1/C(=N/C2=O)Nc2cc(N[C@H]3CC[C@@H](N(C)C)CC3)ccc21 [Example 26]	EGFR (d746-750 (d19)/T790M) (Homo sapiens (Human), UniProt P00533, DEL746-750/T790M)	10.96

(1) Cc1cc2cc(n1)-c1cnn(C)c1OCCC[C@@H](C1CC1)CN1/C(=N/C2=O)Nc2cc(NCC3COC3)ccc21 [Example 36]
(2) Cc1cc2cc(n1)-c1cnn(C)c1OCCC[C@@H](C1CC1)CN1/C(=N/C2=O)Nc2cc(NC3CC(N(C)C)C3)ccc21 (stereo partly drawn) [Example 93]
Response body: label of entry with the larger pIC50; valid values 1 , 2 . Could you answer with the label of the item you picked? 1
(1: 10.82, 2: 9.96)

====

molecular target: EGFR (d746-750/T790M/C797S) (Homo sapiens (Human), UniProt P00533, C797S/DEL746-750/T790M); assay: Inhibitory activity for EGFR (d746-750/T790M/C797S) kinase; conditions: ATP 5 μM; read-out: EGFR(d19/T790M/C797S) (IC50)
Sequence (P00533 other isoform, or with tags, fused parts or gaps T790M/C797S/del 1-694/del 746-750 limits assumed): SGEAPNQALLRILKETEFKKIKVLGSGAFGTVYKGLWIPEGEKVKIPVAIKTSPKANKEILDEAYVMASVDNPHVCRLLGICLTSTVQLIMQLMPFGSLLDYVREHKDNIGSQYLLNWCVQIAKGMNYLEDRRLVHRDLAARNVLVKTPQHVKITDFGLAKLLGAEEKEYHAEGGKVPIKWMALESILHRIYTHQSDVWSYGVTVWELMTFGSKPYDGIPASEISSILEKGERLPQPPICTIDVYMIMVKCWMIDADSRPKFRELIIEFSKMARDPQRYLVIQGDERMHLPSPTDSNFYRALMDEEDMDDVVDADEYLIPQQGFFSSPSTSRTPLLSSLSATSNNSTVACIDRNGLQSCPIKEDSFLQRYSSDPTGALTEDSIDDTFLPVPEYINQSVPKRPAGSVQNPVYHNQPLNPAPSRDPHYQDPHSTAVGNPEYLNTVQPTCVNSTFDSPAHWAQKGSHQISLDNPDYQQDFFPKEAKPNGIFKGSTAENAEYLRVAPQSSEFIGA
pIC50: −log10 of the molar value.
quantity-measured: pIC50

compound	readout-value
Cc1cc2cc(n1)-c1cnn(C)c1OCCC[C@@H](C1CC1)CN1/C(=N/C2=O)Nc2cc(NCC3CCOCC3)ccc21	10.52
Cc1cc2cc(n1)-c1cnn(C3CC3)c1OCCC[C@@H](C)CN1/C(=N/C2=O)Nc2ccc(N3CC[C@H](O)C3)cc21	10.20
Cc1cc2cc(n1)-c1cnn(C)c1OCCC[C@@H](C1CC1)CN1/C(=N/C2=O)Nc2cc(NCCCN)ccc21	10.28
Cc1cc2cc(n1)-c1cnn(C)c1OCCC[C@@H](C1CC1)CN1/C(=N/C2=O)Nc2ccc(NC(C)CN(C)C)cc21 (stereo partly shown)	10.89
Cc1cc2cc(n1)-c1cnn(C)c1OCCC[C@@H](C1CC1)CN1/C(=N/C2=O)Nc2cc(NC(C)CN(C)C)ccc21 (stereo partly shown)	10.66

(I) Cc1cc2cc(n1)-c1cnn(C)c1OCCC[C@@H](C1CC1)CN1/C(=N/C2=O)Nc2ccc(NCCCN3CCCCC3)cc21
(II) Cc1cc2cc(n1)-c1cnn(C)c1OCCC[C@@H](C1CC1)CN1/C(=N/C2=O)Nc2cc(NCCN3CCCC3)ccc21
Response body: label of entry with the larger pIC50; valid values I , II . Could you answer with the label of the item you picked? II
(II: 10.89, I: 10.46)

====

target: EGFR (d746-750/T790M/C797S) (Homo sapiens (Human), UniProt P00533, C797S/DEL746-750/T790M); assay: Inhibitory activity for EGFR (d746-750/T790M/C797S) kinase; conditions: ATP 5 μM; read-out: EGFR(d19/T790M/C797S) (IC50)
quantity-measured: IC50 (pM)

Example results:
compound	IC50 (pM)
Cc1cc2cc(n1)-c1cnn(C)c1OCCC[C@@H](C1CC1)CN1/C(=N/C2=O)Nc2cc(NCC3COC3)ccc21	22
Cc1cc2cc(n1)-c1cnn(C)c1OCCC[C@@H](C1CC1)CN1/C(=N/C2=O)Nc2cc(NC(C)C3COC3)ccc21 (stereo partly shown)	22
Cc1cc2cc(n1)-c1cnn(C)c1OCCC[C@@H](C1CC1)CN1/C(=N/C2=O)Nc2cc(NCCN(C)C)ccc21	12
Cc1cc2cc(n1)-c1cnn(C)c1OCCC[C@@H](C1CC1)CN1/C(=N/C2=O)Nc2cc(NC3(C)CNC3)ccc21	16
C[C@H](Nc1ccc2c(c1)N/C1=N\C(=O)c3cc(F)nc(c3)-c3cnn(C)c3OCCC[C@@H](C3CC3)CN12)C(F)(F)F	450

(a) Cc1cc2cc(n1)-c1cnn(C)c1OCCC[C@@H](C1CC1)CN1/C(=N/C2=O)Nc2cc(NC3CCC3)ccc21
(b) Cc1cc2cc(n1)-c1cnn(C)c1OC[C@H](C1CC1)CCCn1c(nc3ccc(NC4COC4)cc31)NC2=O
(c) Cc1cc2cc(n1)-c1cnn(C)c1OCCC[C@@H](C1CC1)CN1/C(=N/C2=O)Nc2ccc(NCCCN(C)C)cc21
(d) Cc1cc2cc(n1)-c1cnn(C)c1OCCC[C@@H](C1CC1)CN1/C(=N/C2=O)Nc2ccc(NC3CCCC3)cc21
(e) Cc1cc2cc(n1)-c1cnn(C)c1OCCC[C@@H](C1CC1)CN1/C(=N/C2=O)Nc2cc(N[C@@H]3CCCOC3)ccc21
// sort entries: IC50, high to low // list labels; follow requested order d, a, b, e, c
(d: 318 pM, a: 153 pM, b: 74 pM, e: 42 pM, c: 27 pM)

(P) Cc1cc2cc(n1)-c1cnn(C)c1OCCC[C@@H](C1CC1)CN1/C(=N/C2=O)Nc2cc(N[C@H]3C[C@@H](N(C)C)C3)ccc21
(Q) Cc1cc2cc(n1)-c1cnn(C)c1OCCC[C@@H](C1CC1)CN1/C(=N/C2=O)Nc2ccc(NCCN3CCCCC3)cc21
Response body: label of entry with the larger IC50; valid values P , Q . Could you answer with the label of the item you picked? P
